# testedTarget: Ba/F3 EGFR-D770-N771ins_SVD (Homo sapiens, UniProt P00533, DUP768-770, cells depend on it)
# Sequence (P00533 with tags, fused parts or gaps DUP768-770): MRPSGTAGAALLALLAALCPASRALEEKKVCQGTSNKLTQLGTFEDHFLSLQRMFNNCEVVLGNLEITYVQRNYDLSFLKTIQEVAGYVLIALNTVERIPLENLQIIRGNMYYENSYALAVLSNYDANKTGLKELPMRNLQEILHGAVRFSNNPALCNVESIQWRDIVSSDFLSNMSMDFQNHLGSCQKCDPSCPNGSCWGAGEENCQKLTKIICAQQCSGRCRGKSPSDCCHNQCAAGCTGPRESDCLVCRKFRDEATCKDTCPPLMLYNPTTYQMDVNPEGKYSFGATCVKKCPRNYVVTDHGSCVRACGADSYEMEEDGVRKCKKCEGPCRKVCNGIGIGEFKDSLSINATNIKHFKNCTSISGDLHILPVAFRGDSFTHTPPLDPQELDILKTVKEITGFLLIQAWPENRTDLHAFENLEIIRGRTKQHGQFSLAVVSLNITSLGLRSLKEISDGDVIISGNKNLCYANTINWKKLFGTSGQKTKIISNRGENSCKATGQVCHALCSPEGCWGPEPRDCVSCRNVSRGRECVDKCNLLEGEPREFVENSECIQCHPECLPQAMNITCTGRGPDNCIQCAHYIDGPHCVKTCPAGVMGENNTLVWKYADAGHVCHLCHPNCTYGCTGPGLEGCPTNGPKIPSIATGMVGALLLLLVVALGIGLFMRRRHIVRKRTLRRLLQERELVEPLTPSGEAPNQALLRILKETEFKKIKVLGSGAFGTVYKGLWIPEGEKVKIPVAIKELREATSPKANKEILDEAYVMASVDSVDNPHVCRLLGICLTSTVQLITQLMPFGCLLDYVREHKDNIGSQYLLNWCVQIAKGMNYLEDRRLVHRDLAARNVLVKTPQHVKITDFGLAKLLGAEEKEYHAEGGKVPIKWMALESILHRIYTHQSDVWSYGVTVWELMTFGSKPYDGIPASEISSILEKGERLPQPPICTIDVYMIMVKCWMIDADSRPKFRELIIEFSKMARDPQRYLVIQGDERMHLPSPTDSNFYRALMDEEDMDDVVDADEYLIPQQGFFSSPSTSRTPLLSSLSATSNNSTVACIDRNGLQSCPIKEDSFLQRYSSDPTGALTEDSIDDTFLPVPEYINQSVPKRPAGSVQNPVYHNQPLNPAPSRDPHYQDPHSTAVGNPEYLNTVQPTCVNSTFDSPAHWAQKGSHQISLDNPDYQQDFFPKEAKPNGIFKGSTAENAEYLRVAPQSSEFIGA
# protocolDescription: Proliferation experiment of Ba/F3 cell line, EGFR-D770-N771ins_SVD (CellTiter-Glo)
# Type: cell-based
# testContext: cultured for 72 hrs with compound, CTG analysis, read-out: Ba/F3 EGFR-D770-N771ins_SVD IC50
Entries and their GI50
Report the figure in nM without appending any unit label.

{"compound": "C=CC(=O)Nc1cc2c(Nc3cccc(-c4c(F)cccc4F)c3)ncnc2cc1OCCCN1CCN(C)C(=O)C1", "testedTarget": "Ba/F3 EGFR-D770-N771ins_SVD (Homo sapiens, UniProt P00533, DUP768-770, cells depend on it)", "measurementUnit": "nM", "GI50": 35.9}
{"compound": "C=CC(=O)Nc1cc2c(Nc3ccnc(-c4c(F)cccc4F)c3)ncnc2cc1O[C@@H]1CCN(C)C1", "testedTarget": "Ba/F3 EGFR-D770-N771ins_SVD (Homo sapiens, UniProt P00533, DUP768-770, cells depend on it)", "measurementUnit": "nM", "GI50": 2.9}
{"compound": "C=C(F)C(=O)Nc1cc2c(Nc3ccnc(-c4ccccc4F)c3)ncnc2cc1O[C@@H]1CCN(C2COC2)C1", "testedTarget": "Ba/F3 EGFR-D770-N771ins_SVD (Homo sapiens, UniProt P00533, DUP768-770, cells depend on it)", "measurementUnit": "nM", "GI50": 2.6}
{"compound": "C=C(F)C(=O)Nc1cc2c(Nc3ccnc(-c4ccccc4F)c3)ncnc2cc1N1CCOCC1", "testedTarget": "Ba/F3 EGFR-D770-N771ins_SVD (Homo sapiens, UniProt P00533, DUP768-770, cells depend on it)", "measurementUnit": "nM", "GI50": 3.3}
{"compound": "C=CC(=O)Nc1cc2c(Nc3cc(-c4ccc(F)cn4)ccc3F)ncnc2cc1OCCCN1CCOCC1", "testedTarget": "Ba/F3 EGFR-D770-N771ins_SVD (Homo sapiens, UniProt P00533, DUP768-770, cells depend on it)", "measurementUnit": "nM", "GI50": 261}
{"compound": "C=CC(=O)Nc1cc2c(Nc3cccc(-c4ccc(F)cc4F)c3)ncnc2cc1OCCN1CCOCC1", "testedTarget": "Ba/F3 EGFR-D770-N771ins_SVD (Homo sapiens, UniProt P00533, DUP768-770, cells depend on it)", "measurementUnit": "nM", "GI50": 38.5}

Task: Provide GI50 value for the following compound: C=CC(=O)Nc1cc2c(Nc3ccnc(-c4ccc(F)cc4F)c3)ncnc2cc1OCCN1CCOCC1
Output: 1.6

Task: Recall and state the measured GI50 for C=CC(=O)Nc1cc2c(Nc3ccc(F)c(-c4ccccc4F)c3)ncnc2cc1OCCCN1CCN(C)CC1 .
Output: 18

Task: Check the records and state GI50 for C=CC(=O)Nc1cc2c(Nc3ccnc(-c4ccc(F)cc4F)c3)ncnc2cc1OCCCN1CCOCC1
Output: 3.2

Task: Supply reported GI50 belonging to this compound: C=CC(=O)Nc1cc2c(Nc3cccc(-c4c(F)cccc4F)c3)ncnc2cc1OCCCN1CCN(C2COC2)CC1
Output: 25.3

Task: Respond only with GI50 recorded for C=CC(=O)Nc1cc2c(Nc3cc(-c4ncc(F)cc4F)ccc3F)ncnc2cc1OCCN1CCOCC1
Output: 129

Task: Fill in reported GI50 for this entry: C=C(F)C(=O)Nc1cc2c(Nc3ccnc(-c4ccccc4F)c3)ncnc2cc1OCC(F)(F)F
Output: 10.1

Task: Answer with the recorded GI50 for the compound listed here: C=CC(=O)Nc1cc2c(Nc3cccc(-c4ccc(F)cc4F)c3)ncnc2cc1OCCN1CCC(F)(F)C1
Output: 70.5

Task: Consider the compound C=CC(=O)Nc1cc2c(Nc3cccc(-c4ccc(F)cc4F)c3)ncnc2cc1OCCCN1CCC(F)(F)CC1 and give its recorded GI50.
Output: 34.4

Task: Quickly give me recorded GI50 for C=CC(=O)Nc1cc2c(Nc3cccc(-c4ccc(F)cc4F)c3)ncnc2cc1OCCN1CCN(C)CC1
Output: 52.5

Task: Look up and report measured GI50 for this entry: C=CC(=O)Nc1cc2c(Nc3cc(-c4ccc(F)cc4F)ccc3F)ncnc2cc1OCCCN1CCOCC1
Output: 29.3

Task: Input C=CC(=O)Nc1cc2c(Nc3ccnc(-c4ccccc4F)c3)ncnc2cc1N1CCC(N2CCN(C)CC2)CC1 , output reported GI50.
Output: 2.8

Task: Report measured GI50; entry is C=CC(=O)Nc1cc2c(Nc3cc(-c4ncc(F)cc4F)ccc3F)ncnc2cc1OCCCN1CCOCC1
Output: 121

Task: Consider the compound C=CC(=O)Nc1cc2c(Nc3cccc(-c4c(F)cccc4F)c3)ncnc2cc1OCCCN1CCN(C2CC2)CC1 and give its recorded GI50.
Output: 37

Task: Please report the measured GI50 for C=CC(=O)Nc1cc2c(Nc3cncc(-c4ccccc4F)c3)ncnc2cc1O[C@@H]1CCN(C)C1
Output: 14.1

Task: Specify reported GI50 for the compound shown: C=CC(=O)Nc1cc2c(Nc3cccc(-c4ccc(F)cc4F)c3)ncnc2cc1OCCCN1CCC(F)(F)C1
Output: 56.1

Task: Provide only the value of recorded GI50 for C=CC(=O)Nc1cc2c(Nc3ccc(F)c(-c4ncccc4F)c3)ncnc2cc1OCCCN1CCN(C)CC1
Output: 27.8

Task: Fill in reported GI50 for this entry: C=CC(=O)Nc1cc2c(Nc3ccnc(-c4ccc(F)cc4F)c3)ncnc2cc1OCCCN1CCN(C)CC1
Output: 4.2

Task: Input C=CC(=O)Nc1cc2c(Nc3cccc(-c4ccccc4F)c3)ncnc2cc1OCCCN1CCN(C)CC1 , output reported GI50.
Output: 11.9

Task: Return the recorded GI50 value; entry: C=CC(=O)Nc1cc2c(Nc3cccc(-c4ccc(F)cn4)c3)ncnc2cc1OCCCN1CCOCC1
Output: 105

Task: Please report the measured GI50 for C=CC(=O)Nc1cc2c(Nc3ccnc(-c4ccccc4F)c3)ncnc2cc1N1CCOCC1
Output: 1.4

Task: Return value of GI50 for input C=CC(=O)Nc1cc2c(Nc3cccc(-c4c(F)cccc4F)c3)ncnc2cc1OCCCN1CC(N(C)C)C1 , no commentary.
Output: 32.3

Task: Kindly indicate its recorded GI50. Item: C=C(F)C(=O)Nc1cc2c(Nc3ccnc(-c4ccccc4F)c3)ncnc2cc1N1CCC(N2CCN(C)CC2)CC1
Output: 30

Task: Give the measured GI50 for C=CC(=O)Nc1cc2c(Nc3ccnc(-c4ccccc4F)c3)ncnc2cc1OCCCN1CCN(C)CC1
Output: 3.1

Task: Quickly give me recorded GI50 for C=CC(=O)Nc1cc2c(Nc3cccc(-n4cccn4)c3)ncnc2cc1OCCCN1CCN(C)CC1
Output: 11.4

Origin of values: patent US12649727B2
